test system: MDA-MB-231 breast; experiment: NCI-60 one-dose screen, 48 h (100 = growth as untreated, 0 = no growth, -100 = all killed); details: 10 µM unless noted
The panel holds about 83,000 compounds, 20% with a hit somewhere; the sample as a whole holds those more often.
t if growth is below 80%. f if not; exact matches included in f.

Look over these answered cases.
>>> classification("CC1(C)C2CC1C1(/C=N\\Nc3ccccc3)C(C2)C(C#N)(C#N)C1(C#N)C#N (stereo unspecified)")
"t"
>>> classification("Nc1nn(C(=O)Nc2ccc(Cc3ccccc3)cc2)c2ccc(Cl)cc12")
"t"
>>> classification("Cc1ccc(S(=O)(=O)N/N=C/C2(c3ccccc3)CC2)cc1")
"f"
>>> classification("N#C/C(=C\\c1cccc2cnccc12)n1nnc2cccc(F)c21")
"t"
>>> classification("COc1cc(C(=O)c2cc(C)c3[nH]c4ccc(C)cc4c3c2C)cc(OC)c1OC")
"t"

// query Just wondering, is growth of Oc1ccc(Cl)cc1Cc1cc(Cl)cc(Cl)c1O below 80%?
// result t
